Test: Pharmacokinetic assay in mice
Format: in vivo
Conditions: male, ICR, mouse, plasma, oral intragastric administration, 10 mg/kg
quantity.measured: AUC(0-t) (ng·h/mL)
Give bare numbers, in ng·h/mL.

Here is how some compounds turned out for AUC(0-t).
> print(dat)
                              line.notation  quantity.measured  value.observed
1  O=C(Nc1cnc[n+]([O-])c1)c1c(Oc2ccc(OC(F)(F)F)cc2)cc(Cl)c(Cl)c1F           AUC(0-t)           19200
2  O=C(Nc1ccc[n+]([O-])c1)c1cc(Cl)c(C(F)(F)F)cc1Oc1ccc(F)c2c1OC(F)(F)O2           AUC(0-t)           37900

In the following, a different compound is considered.
Enquiry: Give me measured AUC(0-t), please, for this compound: `O=C(Nc1cnc[n+]([O-])c1)c1cc(Cl)c(Cl)cc1Oc1ccc(OC(F)(F)F)cc1`
Return: 17300

---

Provide the recorded Cmax for the entries that follow.
Experiment: Pharmacokinetic assay in mice
Assay type: in vivo
Details: male, ICR, mouse, plasma, oral intragastric administration, 10 mg/kg
Give bare numbers, in ng/mL.

Below: 2 compounds and their reported Cmax.
> print(dat)
                                   compound  value.observed
1  O=C(Nc1cnc[n+]([O-])c1)c1cc(Cl)c(Cl)cc1Oc1ccc(OC(F)(F)F)cc1 [Compound I-1]            7370
2  O=C(Nc1ccc[n+]([O-])c1)c1cc(Cl)c(C(F)(F)F)cc1Oc1ccc(F)c2c1OC(F)(F)O2 [Compound I-23]            3450

Could I get Cmax for every one of these entries?
1. COc1cc(OC(F)(F)F)ccc1Oc1cc(Cl)c(Cl)cc1C(=O)Nc1cnc[n+]([O-])c1 [Compound I-18]
2. O=C(Nc1ccc[n+]([O-])c1)c1c(Oc2ccc(F)c3c2OC(F)(F)O3)cc(C(F)(F)F)c(Cl)c1F [Compound I-11]
3. O=C(Nc1cnc[n+]([O-])c1)c1c(Oc2ccc(OC(F)(F)F)cc2)cc(Cl)c(Cl)c1F [Compound I-19]
4. O=C(Nc1cnc[n+]([O-])c1)c1c(Oc2ccc(OC(F)(F)F)cc2)ccc(C(F)(F)F)c1F [Compound I-20]
5. [2H]C([2H])([2H])Oc1cc(F)ccc1Oc1cc(Cl)c(Cl)cc1C(=O)Nc1cnc[n+]([O-])c1 [Compound I-21]
6. O=C(Nc1ccc[n+]([O-])c1)c1cc(Cl)c(Cl)cc1Oc1ccc(F)c2c1OC(F)(F)O2 [Compound I-22]
7. [2H]C([2H])([2H])Oc1cc(OC(F)(F)F)ccc1Oc1cc(Cl)c(Cl)cc1C(=O)Nc1cnc[n+]([O-])c1 [Compound I-24]

Return:
1: 1390; 2: 2240; 3: 8880; 4: 8010; 5: 1400; 6: 3090; 7: 1870

Enquiry: In one line, give reported Cmax of the entry O=C(Nc1ccc[n+]([O-])c1)c1cc(Cl)c(C(F)(F)F)cc1Oc1ccc(SC(F)(F)F)cc1 [Compound I-15] .
Return: 30000

---

Experiment: Pharmacokinetic assay in mice
Assay type: in vivo
Conditions: male, ICR, mouse, plasma, oral intragastric administration, 10 mg/kg
Give measured Tmax for each item. Keep answers brief.
Numbers only, in min.

> print(dat)
                              line.notation  quantity.measured  value.observed
1  [2H]C([2H])([2H])Oc1cc(F)ccc1Oc1cc(Cl)c(Cl)cc1C(=O)Nc1cnc[n+]([O-])c1               Tmax              30
2  O=C(Nc1cnc[n+]([O-])c1)c1c(Oc2ccc(OC(F)(F)F)cc2)cc(Cl)c(Cl)c1F               Tmax              30

With those in mind, consider the next compound.
Enquiry: Quickly give me recorded Tmax for `COc1cc(OC(F)(F)F)ccc1Oc1cc(Cl)c(Cl)cc1C(=O)Nc1cnc[n+]([O-])c1`
Return: 30
